# literature pull: Endothelial lipase (Homo sapiens, UniProt Q9Y5X9) pIC50
Give only the number. pIC50 is defined as minus log10 of concentration in molar units.

Problem: I have this molecule here, O=C(NCCCc1ccc(Cl)c(Cl)c1)C1=C(O)C(=O)N(CCc2ccccc2)C1 , and I need its recorded pIC50.
Solution: 8.49

Problem: What do you have for C#CCNC(=O)CNC(=O)Cc1nc2ccc(-c3ccccc3)cc2s1 ?
Solution: 7.49

Problem: And CN1CC(C(=O)NCc2ccccc2-c2ccccc2)=C(O)C1=O ?
Solution: 7.57

Problem: Try O=C(NCc1csc2ccccc12)n1[nH]c2ccccc2c1=O next.
Solution: 7.88

Problem: Subsequent entry: CC(=O)NC(c1nnc(CC2(C)NC(=O)NC2=O)o1)c1nc2ccc(-c3ccc(C(=O)N4CCOCC4)cc3)cc2s1 (centres unmarked)
Solution: 6.88

Problem: Would you kindly repeat that for Cc1ccc(Oc2ccc(CNC(=O)C3=C(O)C(=O)N(C)C3)cc2)c(C)c1 ?
Solution: 7.49

Problem: Try the molecule N#CC1(NC(=O)Cc2nnc(Cc3nc4ccc(-c5ccc(F)s5)cc4s3)o2)CC1
Solution: 8.05

---

Several reports have described pIC50 for Endothelial lipase (Homo sapiens); a selection of those results is presented here.
pIC50: −log10 of the molar value.
Would you mind labelling by pIC50? At or over 6 is criterion met, under is criterion not met.

Problem: Does pIC50 meet or surpass 6 for CN1CC(N2CC(C(=O)N[C@H]3CC[C@@H](c4ccccc4)CC3)=C(O)C2=O)CC1=O (some centres unmarked) ?
Solution: criterion not met

Problem: Now give it for N#CC1(NC(=O)Cc2nnc(Cc3nc4ccc(-c5ccc(Cl)cc5)c(F)c4s3)o2)CC1 too.
Solution: criterion met

Problem: Check CN(CCN1CC(C(=O)N[C@H]2CC[C@@H](c3ccccc3)CC2)=C(O)C1=O)c1ccccc1 too.
Solution: criterion not met

Problem: Next entry: CCN1CC(C(=O)NCC2CCc3cnc(-c4ccc(Cl)c(Cl)c4)n3C2)=C(O)C1=O (centres unmarked)
Solution: criterion met

Problem: Another: O=C(c1nnc(NC2CC2)o1)c1nc2ccc(-c3ccc(F)cc3)cc2s1
Solution: criterion met

Problem: Next up: O=C(NCCCc1ccc(Cl)c(Cl)c1)C1=C(O)C(=O)N(CCc2ccc(F)cc2)C1
Solution: criterion met

Problem: // repeat for O=C(NCCCc1ccc(Cl)c(Cl)c1)C1=C(O)C(=O)N(Cc2ccc(F)cc2)C1 and report
Solution: criterion met

---

IC50 values for Endothelial lipase (Homo sapiens, UniProt Q9Y5X9) compiled from several publications are listed below.
IC50 under 60 nM gets True, anything at or over 60 nM gets False.

Problem: For the molecule O=C(Cc1nnc(Cc2nc3ccc(-c4ccc(F)cc4)cc3s2)o1)NC1(CO)CC1 , is IC50 under 60 nM?
Solution: True

Problem: And for O=C(c1nnc(N2CC[C@H](OCc3ccccc3)C2)o1)c1nc2ccc(-c3ccccc3)cc2s1 ?
Solution: False

Problem: Param item: O=C(NCCCc1ccc(Cl)c(Cl)c1)C1=C(O)C(=O)N(Cc2cccc(Cl)c2)C1
Solution: True

Problem: Here is the next molecule: CN(CCN1CC(C(=O)N[C@H]2CC[C@@H](c3ccccc3)CC2)=C(O)C1=O)C(=O)/C=C/C(F)(F)F
Solution: False

Problem: Lookup CN(c1nnc(C(=O)c2nc3ccc(-c4ccccc4)cc3s2)o1)[C@H]1CCNC1=O
Solution: False

Problem: Please do the same for C[C@H](Nc1nnc(C(=O)c2nc3ccc(-c4ccc(F)cc4)cc3s2)o1)c1ccc(Cl)cc1 as well.
Solution: False

Problem: Please do the same for NS(=O)(=O)c1cccc(CNC(=O)Cc2nc3ccc(-c4ccccc4)cc3s2)c1 as well.
Solution: False

Problem: Next molecule: O=C(c1nnc(NCCc2ccc(F)cc2)o1)c1nc2ccc(-c3ccc(F)cc3)cc2s1
Solution: True

Problem: And what about the molecule CC(C)(C)OC(=O)N1CCC(c2nnc(C(=O)c3nc4ccc(-c5ccccc5)cc4s3)o2)CC1 ?
Solution: True

Problem: Entry to check: O=C(Cc1nnc(Cc2nc3ccc(-c4ccccc4)cc3s2)o1)NCCO
Solution: False

Problem: Would you kindly repeat that for NS(=O)(=O)c1ccc(-c2ccc3nc(C(=O)c4nnc(N[C@H]5CCNC5=O)o4)sc3c2)cc1 ?
Solution: True

Problem: Consider next the molecule N#CC1(NC(=O)Cc2nnc(Cc3nc4ccc(-c5ccccn5)cc4s3)o2)CC1 in the same way.
Solution: True

Problem: Try this molecule too: C[C@@H](NC(=O)C1=C(O)C(=O)N(C)C1)c1cccc(-c2cccc(C(N)=O)c2)c1
Solution: True

Problem: Here is the next molecule: CN1CCC(Nc2nnc(C(=O)c3nc4ccc(-c5ccccc5)cc4s3)o2)C1=O (stereo not shown)
Solution: True

Problem: Now consider Cn1ccc(C(=O)NCc2ccccc2N2CCCCC2)c(O)c1=O .
Solution: False

Problem: Item: CC(=O)NC(c1nnc(C2CNC2)o1)c1nc2ccc(-c3ccccc3)cc2s1 (stereo not shown)
Solution: False
